tested.system: Cdk2(R122C) (C177A) (Homo sapiens, UniProt P24941, C177A/R122C)
Construct: poly-histidine; made in house; host or cells: E. coli
method: Kinetic thiol consumption assay with Cdk2 mutant R122C
Format: binding
Set-up: key: rate constant with Cdk2 ÷ rate constant with model thiol (fold)
condition.info: Cdk2 R122C, additional mutation C177A
Lab note - cut at 0.4 for Rate enhancement, Cdk2 R122C: rule met if strictly below, rule not met if not.

Q) Does the reported Rate enhancement, Cdk2 R122C of the following molecule sit strictly below 0.4? C=CC(=O)N(C)C1CC(OCC)C12CCC2 (stereo not drawn)
A) rule met

Q) Does the reported Rate enhancement, Cdk2 R122C of the following molecule sit strictly below 0.4? C=CC(=O)NCCNC(=O)c1ccccc1
A) rule not met

Q) Does the reported Rate enhancement, Cdk2 R122C of the following molecule sit strictly below 0.4? C=CC(=O)NCCc1c[nH]c2ccccc12
A) rule not met

Q) Does the reported Rate enhancement, Cdk2 R122C of the following molecule sit strictly below 0.4? C=CC(=O)Nc1[nH]nc(C2CC2)c1-c1ccc2c(c1)OCO2
A) rule met

Q) Does the reported Rate enhancement, Cdk2 R122C of the following molecule sit strictly below 0.4? C=CC(=O)Nc1ccc2c(c1)OC1(CCCC1)O2
A) rule not met

Q) Does the reported Rate enhancement, Cdk2 R122C of the following molecule sit strictly below 0.4? C=CC(=O)NCC1(NC(=O)OC(C)(C)C)CCCCC1
A) rule met

These measurements were taken from patent US11415579B2.
